Tested on: K-562 leukemia
Test method notes: NCI-60 one-dose screen, 48 h
Condition info: 10 µM unless noted
This is part of a sample that, as a whole, favours compounds with a hit. Of some 83,000 tested, about 20% had one in any assay. Active and inactive are the calls of the source. Rule for the calls: active = growth percent below 10; inactive = the rest.
Hi! Could you answer with just one of these? true for active, false for inactive

Test call for this compound, please: COC(=O)[C@@H](Cc1c[nH]c2ccccc12)NC(=O)[C@H](Cc1ccccc1)NCc1ccncc1
false

Give the logged outcome of this assay for the following compound: COC(=O)c1c(C)nc(C)c2c1C(=O)C(Br)=C(NCCN1CCOCC1)C2=O
false

# outcome recorded in this test, key = Cc1c2cnccc2c(C)c2c1c1cc(C(=O)O)ccc1n2C
true

Name the outcome recorded for CCc1ccc(Cc2cnc(NC(=O)c3cc(C)oc3C)s2)cc1 in the assay.
false

Recorded test call requested for O=c1[nH]c(CN2CCN(c3ccccc3)CC2)nc2c(Br)cc(Br)cc12
false

Tell me the recorded outcome of this test for Cc1c(N2CCCCC2)[nH]c2ccccc12 .
false

Please indicate how the test categorized O=C(CNc1ncco1)Nc1ccc(S(=O)(=O)c2ccc(NC(=O)CNc3ncco3)cc2)cc1 .
true

Which outcome did this test record for the compound O=C(Nc1ccccc1)Nc1ccccc1CNc1nc(Nc2ccc(OCCN3CCCC3)cc2)ncc1Cl ?
true

State the result this test recorded for Oc1ccc(Cc2ccc(O)c3ncccc23)c2cccnc12 .
true

Test call for this compound, please: CC(C)n1nc(-c2ccc3oc(N)nc3c2)c2c(N)ncnc21
false

Recorded call for C=C1CC[C@@H]2[C@](C)(COC(C)=O)[C@H](OC(C)=O)CC[C@@]2(C)[C@@H]1CC(Nc1ccc(S(=O)(=O)Nc2nccc(C)n2)cc1)C1=CCOC1=O (stereo partly specified) ?
true
